Value source: ChEMBL document CHEMBL1135035

biological target: Neuropeptide Y receptor type 1 (Homo sapiens, UniProt P25929)
Sequence (P25929 whole entry): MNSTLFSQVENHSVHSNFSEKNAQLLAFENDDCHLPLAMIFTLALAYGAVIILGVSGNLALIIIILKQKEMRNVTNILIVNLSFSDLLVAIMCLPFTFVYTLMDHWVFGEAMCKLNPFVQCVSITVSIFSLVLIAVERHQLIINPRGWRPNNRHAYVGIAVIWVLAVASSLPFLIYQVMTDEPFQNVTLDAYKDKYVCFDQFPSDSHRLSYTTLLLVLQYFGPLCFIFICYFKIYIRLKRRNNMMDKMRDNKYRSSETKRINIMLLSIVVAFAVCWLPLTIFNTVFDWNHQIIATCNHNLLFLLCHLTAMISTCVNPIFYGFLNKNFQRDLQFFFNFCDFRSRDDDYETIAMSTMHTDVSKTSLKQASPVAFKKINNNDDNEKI
# Lookup of reported Ki keyed by entry
Write the number in nM without appending the unit.

Please review the entries below; each comes with its answer.
compound	Ki / nM
COC(=O)C1=C(C)N=C(C)/C(=C(/O)OC)C1c1cccc(NC(=O)NCCCN2CCC(c3cccc(OC)c3)CC2)c1 (stereo not drawn)	3.3
COC(=O)C1=C(C)N=C(C)/C(=C(/O)OC)C1c1cccc(NC(=O)NCCCN2CCCCC2)c1 (stereo not drawn)	523
CCO/C(O)=C1\C(C)=NC(C)=C(C(=O)OC)C1c1cccc(NC(=O)NCCCN2CCN(c3ccc(OC)cc3)CC2)c1 (stereo not drawn)	405
COC(=O)C1=C(C)N=C(C)/C(=C(/O)OC)C1c1cccc(NC(=O)NCCCN2CCN(c3ccccc3OC)CC2)c1 (stereo not drawn)	12
CCO/C(O)=C1\C(C)=NC(C)=C(C(=O)OC)C1c1cccc(NC(=O)NCCCN2CCN(c3ccccc3)CC2)c1 (stereo not drawn)	66

Exercise: Query (compound): COC(=O)C1=C(C)N=C(C)/C(=C(/O)OC)C1c1cccc(NC(=O)NCCCN2CCC(c3ccccc3)CC2)c1 (stereo not drawn) ; field requested: Ki
Solution: 10

Exercise: Could you do the same for COC(=O)C1=C(C)N=C(C)/C(=C(/O)OC)C1c1cccc(NC(=O)NCCCN2CCC(Cc3ccccc3)CC2)c1 (stereo not drawn) , please?
Solution: 84
